Please provide measured GI50 for the entries that follow.
System: HT29 cells (colorectal adenocarcinoma)
TEST_PROTOCOL: cells
TEST_CONTEXT: HT29; 72 hours treatment; SRB
Answers are plain numbers, in nM.

{"columns": ["COMPOUND", "UNIT_TEXT", "GI50"],
 "data": [
  ["COc1c(C)cc2c(c1O)[C@@H]1[C@@H]3[C@@H]4SC[C@]5(N[C@H](C)Cc6c5[nH]c5ccccc65)C(=O)OC[C@@H](c5c6c(c(C)c(OC(C)=O)c54)OCO6)N3[C@@H](O)[C@H](C2)N1C", "nM", 20.8],
  ["C=CCOC(=O)NC[C@H]1Cc2c([nH]c3ccc(OC)cc23)[C@@]2(CS[C@@H]3c4c(OC(C)=O)c(C)c5c(c4[C@H](COC2=O)N2[C@@H]3[C@H]3c4c(cc(C)c(OC)c4O)C[C@@H]([C@@H]2C#N)N3C)OCO5)N1", "nM", 1.54],
  ["COc1c(C)cc2c(c1O)[C@@H]1[C@@H]3[C@@H]4SC[C@]5(N[C@H](COC(C)=O)Cc6c5[nH]c5ccccc65)C(=O)OC[C@@H](c5c6c(c(C)c(OC(C)=O)c54)OCO6)N3[C@@H](C#N)[C@H](C2)N1C", "nM", 2.99]
]}

Return reported GI50 values for all items listed beneath this line.
1. COc1ccc2[nH]c3c(c2c1)C[C@H](CN)N[C@]31CS[C@@H]2c3c(OC(C)=O)c(C)c4c(c3[C@H](COC1=O)N1[C@@H]2[C@H]2c3c(cc(C)c(OC)c3O)C[C@@H]([C@@H]1C#N)N2C)OCO4
2. COc1c(C)cc2c(c1O)[C@@H]1[C@@H]3[C@@H]4SC[C@]5(N[C@H](CO)Cc6c5oc5ccccc65)C(=O)OC[C@@H](c5c6c(c(C)c(OC(C)=O)c54)OCO6)N3[C@@H](C#N)[C@H](C2)N1C
3. COc1ccc2[nH]c3c(c2c1)C[C@H](C(=O)O)N[C@]31CS[C@@H]2c3c(OC(C)=O)c(C)c4c(c3[C@H](COC1=O)N1[C@@H]2[C@H]2c3c(cc(C)c(OC)c3O)C[C@@H]([C@@H]1C#N)N2C)OCO4 [Compound 28-R, reference compound]

(A)
1. 0.729
2. 4.53
3. 31

Return reported GI50 values for all items listed beneath this line.
1. COc1c(C)cc2c(c1O)[C@@H]1[C@@H]3[C@@H]4SC[C@]5(NCCc6c5oc5ccccc65)C(=O)OC[C@@H](c5c6c(c(C)c(OC(C)=O)c54)OCO6)N3[C@@H](C#N)[C@H](C2)N1C
2. C=CCOC(=O)NC[C@@H]1Cc2c([nH]c3ccc(OC)cc23)[C@@]2(CS[C@@H]3c4c(OC(C)=O)c(C)c5c(c4[C@H](COC2=O)N2[C@@H]3[C@H]3c4c(cc(C)c(OC)c4O)C[C@@H]([C@@H]2C#N)N3C)OCO5)N1

(A)
1: 10.5; 2: 7.17

---

Please provide measured Total diameter (tumor + leg) for the entries that follow.
System: HT1080 tumors
TEST_PROTOCOL: Human fibrosarcoma xenograft, total diameter (tumor + leg)
TEST_CONTEXT: Day 9
Answers are plain numbers, in mm.

Field: example entries. Status: answers known.
{"columns": ["MOLECULE", "Total diameter (tumor + leg) (mm)"],
 "data": [
  ["COc1c(C)cc2c(c1O)[C@@H]1[C@@H]3[C@@H]4SC[C@]5(N[C@H](C)Cc6c5[nH]c5ccccc65)C(=O)OC[C@@H](c5c6c(c(C)c(OC(C)=O)c54)OCO6)N3[C@@H](O)[C@H](C2)N1C", 10.2],
  ["COc1c(C)cc2c(c1O)[C@@H]1[C@@H]3[C@@H]4SC[C@]5(N[C@H](CO)Cc6c5oc5ccccc65)C(=O)OC[C@@H](c5c6c(c(C)c(OC(C)=O)c54)OCO6)N3[C@@H](O)[C@H](C2)N1C", 6.9],
  ["COc1c(C)cc2c(c1O)[C@@H]1[C@@H]3[C@@H]4SC[C@]5(N[C@@H](CN)Cc6c5[nH]c5ccccc65)C(=O)OC[C@@H](c5c6c(c(C)c(OC(C)=O)c54)OCO6)N3[C@@H](O)[C@H](C2)N1C", 9.5],
  ["COc1c(C)cc2c(c1O)[C@@H]1[C@@H]3[C@@H]4SC[C@]5(N[C@@H](C)Cc6c5[nH]c5ccccc65)C(=O)OC[C@@H](c5c6c(c(C)c(OC(C)=O)c54)OCO6)N3[C@@H](O)[C@H](C2)N1C", 8.1],
  ["COc1c(C)cc2c(c1O)[C@@H]1[C@@H]3[C@@H]4SC[C@]5(N[C@@H](CN)Cc6c5oc5ccccc65)C(=O)OC[C@@H](c5c6c(c(C)c(OC(C)=O)c54)OCO6)N3[C@@H](O)[C@H](C2)N1C", 11.5]
]}

Measured Total diameter (tumor + leg), COc1ccc2[nH]c3c(c2c1)CCN[C@]31CS[C@@H]2c3c(OC(C)=O)c(C)c4c(c3[C@H](COC1=O)N1[C@@H]2[C@H]2c3c(cc(C)c(OC)c3O)C[C@@H]([C@@H]1O)N2C)OCO4 [PM01183, reference compound] : 12.7
